// data source = PubChem BioAssay (NCI)

Overview of recorded TGI for various compounds
Tested on: SF-295 CNS
measurement_notes: NCI tumour cell line growth inhibition, 48 h

Take a look at these entries with their results.
INSERT INTO assay_data (compound, metric_name, readout_value) VALUES
  ('O=C(O)c1cc(C(=O)O)cc(N2C(=O)c3ccccc3C2=O)c1', 'TGI', '> 100 µM'),
  ('CCOC(=O)c1ncn2c1[nH]c(=S)c1ccccc12', 'TGI', '> 100 µM'),
  ('O=C(O)C(Cc1ccccc1)N1C(=O)N/C(=C\c2ccc(F)cc2)C1=O (centres undefined)', 'TGI', '> 100 µM');

# lookup: TGI of CC1(C)OC(=O)C(=Cc2ccc(O)cc2)C(=O)O1
> 100 µM

Entry under review: S=C1NCCN1 . Reported TGI?
> 100 µM

Any idea what TGI was measured for NC(CCc1nc(-c2ccc(Cl)cc2)cs1)C(=O)O (centres undefined) ?
> 100 µM

Which TGI value is on record for S=c1nc2sc3c(c2c(Nc2ccc(Cl)cc2)[nH]1)CCCC3 ?
> 100 µM

Which TGI value belongs to C=C1C[C@@H]2CC[C@@]34CC5O[C@H]6C(O[C@H]7CC[C@H](CC(=O)O[C@@H]8[C@@H](C)[C@@H]9O[C@@H]%10C[C@]%11(C[C@@H]%12O[C@]%13(C[C@H](C)[C@@H]%14O[C@@H]%15CC(C(O)CO)O[C@@H]%15C[C@@H]%14O%13)C[C@H](C)[C@@H]%12O%11)O[C@@H]%10C[C@@H]9O[C@H]8CC8O[C@@H](CC[C@@H]1O2)C[C@@H](C)C8(O)CO)O[C@@H]7[C@@H]6O3)[C@H]5O4 (some centres undefined) ?
> 1 µM

Form field: reported TGI of CC(C)(C)c1cc(C(=O)/C=C/c2c(Cl)cccc2Cl)cc(C(C)(C)C)c1O
42.2 µM

----------
Items are presented alongside their recorded TGI.
Tested on: NCI/ADR-RES ovarian
measurement_notes: NCI tumour cell line growth inhibition, 48 h

Recorded TGI, per entry:
INSERT INTO assay_data (molecule, metric_name, readout_value) VALUES
  ('O=C1OCN(c2ccccc2)C12CCN(Cc1ccccc1)CC2', 'TGI', '> 100 µM'),
  ('C1=CC2C=CC(C=C1)P2c1ccccc1 (configuration not stated)', 'TGI', '> 100 µM'),
  ('CSCCCN(CCCSC)CCCSC', 'TGI', '> 100 µM'),
  ('O=C1NC(N/N=C/C(O)C(O)C(O)C(O)CO)=N/C1=C\c1ccco1 (configuration not stated)', 'TGI', '> 100 µM'),
  ('O=C1c2cccnc2-c2nc(-c3ccccc3[N+](=O)[O-])cc3c2c1nc1ccccc13', 'TGI', '> 69.3 µM');

Tell me the measured TGI of O=C(O)c1cc(C(=O)O)cc(N2C(=O)c3ccccc3C2=O)c1 , please.
> 100 µM

Tell me the measured TGI of COC(=O)NC(Nc1ccccn1)(C(F)(F)F)C(F)(F)F , please.
> 100 µM

Entry under review: CC(C)=C1C(=O)C[C@]2(C)C[C@H]3O[C@]3(C)CC[C@@H]3O[C@@]3(C)CC[C@@H]12 . Reported TGI?
> 50 µM

Any idea what its TGI is? The molecule is NC(=O)c1ccc(C(=O)Nc2ccc([As](=O)(O)O)cc2)cc1
> 100 µM

So what does the record say about TGI for C=CC[C@H]1O[Si](C(C)(C)C)(C(C)(C)C)[C@H](C)[C@H]1C ?
> 100 µM

Please give the measured TGI for this molecule: Fc1ccc(Nc2ncnc3ccc(-c4cnc5[nH]ccc5c4)cc23)cc1Cl
> 87.8 µM

# input molecule: CN(CC(=O)N1CC(CCl)c2ccc([N+](=O)[O-])cc21)CC(=O)N1CC(CCl)c2ccc([N+](=O)[O-])cc21 (configuration not stated) ; wanted: its TGI
> 100 µM

Look at this molecule and give its reported TGI. Cc1cc(=O)[nH]c2cc3oc4ccccc4c3cc12
> 100 µM

Which TGI is reported for this molecule? N#Cc1cccc2c1Sc1ccccc1N2
> 100 µM

----------
Entries annotated with measured GI50
Test system: CAKI-1 renal
measurement_notes: NCI tumour cell line growth inhibition, 48 h

INSERT INTO assay_data (compound, metric_name, readout_value) VALUES
  ('O=C(CCl)N1c2ccccc2Oc2ccc3ccccc3c21', 'GI50', '1.02 µM');

Report GI50 for O=C1c2cccnc2-c2nc(-c3ccccc3[N+](=O)[O-])cc3c2c1nc1ccccc13 please.
18 µM

Fill blank: measured GI50 of the compound COc1cc2nc(C)nc(N[C@H](C)c3cc(N)cc(C(F)(F)F)c3)c2cc1O[C@H]1CCOC1 is ____.
7.14 µM

Given Cc1cnc(NC(=O)C(Cc2ccccc2)NC(=O)c2ccccc2)s1 (centres undefined) , state its recorded GI50.
33 µM

----------
Test system: M14 melanoma
measurement_notes: NCI tumour cell line growth inhibition, 48 h
metric_name: GI50

Worked examples follow.
INSERT INTO assay_data (molecule, readout_value) VALUES
  ('CN(C)c1ccc(-c2cc(-c3ccc(Nc4nc(Nc5ccc(Cl)cc5)nc(Nc5ccc(Cl)cc5)n4)cc3)no2)cc1', '2620 nM'),
  ('CC(=O)[O][Hg][c]1c(N)c(C)cc(C)c1F', '1550 nM'),
  ('CCOc1ccccc1-n1c(CN2CCN(C(=O)COc3ccc(CNCCCCCCN4C5CCCC4CC(OC(=O)Nc4cc(C)ccc4OC)C5)cc3)CC2)nc2ccccc2c1=O (stereo unspecified)', '1430 nM'),
  ('CC(C)c1ccc(C(C)C(=O)N(CC2=C(C(C)c3ccccn3)c3ccccc3C2)C(C)C)cc1 (stereo unspecified)', '3930 nM'),
  ('CSc1ccccc1C#C/C=C\C#Cc1ccccc1N1CCCC1=O', '> 12300 nM');

// next item, GI50 requested
// returns reported GI50 for input O=C(Nc1ccc(F)cc1F)c1cc(I)ccc1O
2210 nM

----------
Each entry below lists one item and its recorded TGI value.
Tested on: HT29 colon
measurement_notes: NCI tumour cell line growth inhibition, 48 h

INSERT INTO results (compound, readout_value) VALUES
  ('NC(CCCCCCCCCCP(=O)(O)O)C(=O)O (stereo unspecified)', '> 100 µM'),
  ('COC(=O)[C@@H](C)C[C@H](Cc1ccc(F)cc1)NC(=O)c1csc([C@@H](C[C@H](C(C)C)N(C)C(=O)[C@@H](NC(=O)[C@H]2CCCCN2C)C(C)C)OC(C)=O)n1', '> 16.7 µM'),
  ('COc1cc2c(c(OC)c1O)C(=O)C(OC)C(c1ccc(O)c(O)c1)O2 (stereo unspecified)', '> 67.7 µM'),
  ('CC(C)=CCCc1c(C)ccc2c1C(=O)C(=O)C(C(C)C)=C2', '> 22 µM'),
  ('C/C(CCn1[nH]c(=O)ccc1=O)=N\O', '> 100 µM');

Look up TGI for this compound: Oc1ccc(Cl)cc1-c1cc(-c2ccccc2Cl)[nH]n1
> 100 µM

Reported TGI, compound c1cc2c(cc1NC1=NCCO1)CCC2 : ____
> 10 µM

# lookup: TGI of Cc1ccc(Cc2n[nH]c(=O)[nH]2)cc1
> 100 µM

Entry NC(=O)C(=CNC(N)=S)C(N)=O has what TGI?
> 100 µM

Looking for the measured TGI of CN(Cc1cnc2nc(N)nc(N)c2n1)c1ccc(C(=O)NCCS(=O)(=O)O)cc1 , can you help?
> 100 µM

Item COc1cc2cnc3c4cc(OC(C)C)c(OC)cc4ccc3c2cc1OC has what recorded TGI?
> 100 µM

----------
Parameter TGI: see the listing below.
Tested on: SF-268 CNS
measurement_notes: NCI tumour cell line growth inhibition, 48 h

Study these solved cases before continuing.
INSERT INTO assay_data (compound, readout_value) VALUES
  ('O=c1cc(-c2cccc(O)c2)[nH]c2cc3c(cc12)OCO3', '> 69.6 µM'),
  ('CCOC(=O)C(Sc1ccccc1)c1c(OC)cc(=O)oc1/C=[N+](/[O-])c1ccc(N(C)C)cc1 (configuration not stated)', '> 100 µM'),
  ('COc1cccc(NC(=O)CC(=O)n2nc(C)c(N=Nc3ccccc3)c2C)c1', '> 100 µM'),
  ('Fc1ccc(Nc2ncnc3ccc(-c4cnc5[nH]ccc5c4)cc23)cc1Cl', '> 73.4 µM'),
  ('Cc1ccc2c(c1)[nH]c(=S)n2C=C(C(N)=O)C(N)=O', '> 100 µM');

Sample O=c1ccn([C@@H]2C[C@H]2CO)c(=O)[nH]1 — what was its TGI?
> 100 µM

May I ask what TGI has been recorded for Nc1ccccc1-c1noc(=O)[nH]1 ?
> 100 µM

Would you mind telling me what TGI value was observed for COC(=O)NC(Nc1ccccn1)(C(F)(F)F)C(F)(F)F ?
> 100 µM
